EC50 overview
Tested on: NLRP3 inflammasome (Homo sapiens, UniProt Q96P20)
Construct: host or cells: THP-1 human monocytic cells, treated with PMA and stimulated with gramicidin
Sequence (Q96P20 whole entry): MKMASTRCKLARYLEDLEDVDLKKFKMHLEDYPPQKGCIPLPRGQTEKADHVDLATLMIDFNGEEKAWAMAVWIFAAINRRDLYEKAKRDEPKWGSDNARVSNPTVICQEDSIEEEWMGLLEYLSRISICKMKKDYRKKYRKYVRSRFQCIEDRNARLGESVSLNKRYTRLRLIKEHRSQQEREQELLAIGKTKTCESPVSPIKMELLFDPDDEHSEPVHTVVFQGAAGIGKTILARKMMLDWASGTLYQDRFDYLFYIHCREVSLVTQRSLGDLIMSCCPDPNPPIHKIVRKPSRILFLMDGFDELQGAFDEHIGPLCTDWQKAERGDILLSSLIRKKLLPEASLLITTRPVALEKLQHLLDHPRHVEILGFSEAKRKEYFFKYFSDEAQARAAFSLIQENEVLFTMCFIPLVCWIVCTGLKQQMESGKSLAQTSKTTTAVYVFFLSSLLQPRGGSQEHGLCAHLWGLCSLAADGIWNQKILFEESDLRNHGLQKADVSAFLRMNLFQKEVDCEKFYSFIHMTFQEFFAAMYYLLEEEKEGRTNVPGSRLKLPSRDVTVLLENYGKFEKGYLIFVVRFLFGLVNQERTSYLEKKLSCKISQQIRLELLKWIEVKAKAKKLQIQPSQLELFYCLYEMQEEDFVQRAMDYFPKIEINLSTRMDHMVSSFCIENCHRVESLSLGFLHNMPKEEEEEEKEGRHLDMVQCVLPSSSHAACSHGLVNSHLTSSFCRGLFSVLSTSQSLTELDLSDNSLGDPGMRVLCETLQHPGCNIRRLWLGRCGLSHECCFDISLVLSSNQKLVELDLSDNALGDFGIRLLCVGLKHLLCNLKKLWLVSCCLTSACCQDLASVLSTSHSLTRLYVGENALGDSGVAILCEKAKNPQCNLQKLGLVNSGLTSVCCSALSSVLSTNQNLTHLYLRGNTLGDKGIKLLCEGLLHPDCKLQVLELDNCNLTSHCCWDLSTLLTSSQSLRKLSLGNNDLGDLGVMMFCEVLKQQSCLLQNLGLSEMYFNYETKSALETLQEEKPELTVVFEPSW
Measurement protocol: ASC-SPECK formation in THP-1 cells after gramicidin stimulation (NLRP3 inflammasome activation)
Assay type: cell-based
Applied conditions: PMA-treated human monocytic THP-1 cells; compound 1 h before 12.5 μg/ml gramicidin, 3-hour treatment; ASC SPECK imaging; read-out: EC50 values (nM) for Examples that inhibit NLRP3 inflammasome activation
Reply with just the number (in nM).

- Compound: "CN1CCCC(n2cnc3cc(-c4ccc(C(F)(F)F)cc4O)nnc32)C1 (racemic)"
  Tested on: "NLRP3 inflammasome (Homo sapiens, UniProt Q96P20)"
  Unit symbol: "nM"
  Recorded number: 1000
- Compound: "Cc1c(-c2ccc(C(F)(F)F)cc2O)nnc2c1ncn2[C@@H]1CCCN(C(C)C)C1"
  Tested on: "NLRP3 inflammasome (Homo sapiens, UniProt Q96P20)"
  Unit symbol: "nM"
  Recorded number: 20
- Compound: "Cc1c(-c2ccc3c(c2O)CC(F)(F)C3)nnc2c1ncn2[C@@H]1CCCN(C)C1"
  Tested on: "NLRP3 inflammasome (Homo sapiens, UniProt Q96P20)"
  Unit symbol: "nM"
  Recorded number: 996
- Compound: "Cc1c(-c2ccc(C(F)(F)F)cc2O)nnc2c1ncn2[C@@H]1CC[C@@H]2CC[C@H]1N2 (single isomer, unassigned)"
  Tested on: "NLRP3 inflammasome (Homo sapiens, UniProt Q96P20)"
  Unit symbol: "nM"
  Recorded number: 130
- Compound: "Cc1c(-c2ccc3sccc3c2O)nnc2c1ncn2[C@@H]1CCCN(C)C1"
  Tested on: "NLRP3 inflammasome (Homo sapiens, UniProt Q96P20)"
  Unit symbol: "nM"
  Recorded number: 61
- Compound: "CCN1CCC[C@@H](n2cnc3c(C)c(-c4ccc(C(F)(F)F)cc4O)nnc32)C1"
  Tested on: "NLRP3 inflammasome (Homo sapiens, UniProt Q96P20)"
  Unit symbol: "nM"
  Recorded number: 13
- Compound: "Cc1c(-c2ccc(C(F)(F)F)cc2O)nnc2c1nc(C)n2[C@@H]1CCCN(C)C1"
  Tested on: "NLRP3 inflammasome (Homo sapiens, UniProt Q96P20)"
  Unit symbol: "nM"
  Recorded number: 567

Now look at this entry.
## Input Given the entry Cc1c(-c2ccc(Cl)cc2O)nnc2c1ncn2[C@@H]1CCCNC1 , what EC50 was observed with NLRP3 inflammasome (Homo sapiens, UniProt Q96P20)?
## Output 320

* * *

Tested on: NLRP3 inflammasome (Homo sapiens, UniProt Q96P20)
Construct: host or cells: THP-1 human monocytic cells, treated with PMA and stimulated with gramicidin
Measurement protocol: ASC-SPECK formation in THP-1 cells after gramicidin stimulation (NLRP3 inflammasome activation)
Format: cell-based
Applied conditions: PMA-treated human monocytic THP-1 cells; compound 1 h before 12.5 μg/ml gramicidin, 3-hour treatment; ASC SPECK imaging; read-out: EC50 values (nM) for Examples that inhibit NLRP3 inflammasome activation
EC50 overview
Reply with just the number (in nM).

Completed entries (count: 2):
- Compound: "Cc1c(-c2ccc(C(F)(F)F)cc2O)nnc2c1ncn2[C@@H]1CCCNC1 [Example 5]"
  Attribute measured: "EC50"
  Recorded number: 143
- Compound: "Cc1c(-c2ccc(C(F)(F)F)cc2O)nnc2c1ncn2[C@H]1CC[C@H]2CC[C@@H]1N2 (single isomer, unassigned) [Example 25]"
  Attribute measured: "EC50"
  Recorded number: 1010

Now look at this entry.
## Input Report EC50 for Cc1c(-c2c(O)cc(Cl)cc2F)nnc2c1ncn2[C@@H]1CCCN(C)C1 [Example 26] please.
## Output 81
